# assay protocol: pH stability profile
# Assay type: physicochemical
# condition description: buffer pH 8; unit assumed
value type: Assay, initial (%)
Give bare numbers, in %.

compound CC(Cc1ccccc1)C(=O)[O-].[Na+] (stereo not drawn) [sodium α-methyl hydrocinnamate] , Assay, initial observed: 97.9

====

# assay protocol: pH stability profile
# Type: physicochemical
# condition description: buffer pH 6; unit assumed
value type: Assay, initial (%)
Give bare numbers, in %.

For record CC(Cc1ccccc1)C(=O)[O-].[Na+] (stereo not drawn) [sodium α-methyl hydrocinnamate] the listed Assay, initial is 97.2

====

# assay protocol: pH stability profile
# Type: physicochemical
# condition description: buffer pH 7; unit assumed
# Procedure: The pH stability profile was determined at pH values of 2, 5, 6, 7, 8, 9, and 13 respectively. A pH 7 phosphate buffer at a buffer concentration of 100 mM was initially prepared. […] Diluted 0.5 ml of each solution to 5 mL with diluent and analysed by HLPC per AM-013-RO to determine the initial concentration of sodium α-methyl hydrocinnamate. […]
value type: Assay, initial (%)
Answers are plain numbers, in %.

The molecule CC(Cc1ccccc1)C(=O)[O-].[Na+] (stereo not drawn) [sodium α-methyl hydrocinnamate] showed Assay, initial equal to 94

====

# assay protocol: pH stability profile
# Assay type: physicochemical
# condition description: buffer pH 4*, pH 5* on addition of drug; unit assumed
# Experimental: The pH stability profile was determined at pH values of 2, 5, 6, 7, 8, 9, and 13 respectively. A pH 7 phosphate buffer at a buffer concentration of 100 mM was initially prepared. […] Diluted 0.5 ml of each solution to 5 mL with diluent and analysed by HLPC per AM-013-RO to determine the initial concentration of sodium α-methyl hydrocinnamate. […]
value type: Assay, initial (%)
Give bare numbers, in %.

// recorded Assay, initial for CC(Cc1ccccc1)C(=O)[O-].[Na+] (stereo not drawn) [sodium α-methyl hydrocinnamate] : 98.8

====

# assay protocol: pH stability profile
# Type: physicochemical
# condition description: buffer pH 13; unit assumed
# Description: The pH stability profile was determined at pH values of 2, 5, 6, 7, 8, 9, and 13 respectively. A pH 7 phosphate buffer at a buffer concentration of 100 mM was initially prepared. […] Diluted 0.5 ml of each solution to 5 mL with diluent and analysed by HLPC per AM-013-RO to determine the initial concentration of sodium α-methyl hydrocinnamate. […]
value type: Assay, initial

Sure, the documented Assay, initial for CC(Cc1ccccc1)C(=O)[O-].[Na+] (stereo not drawn) [sodium α-methyl hydrocinnamate] is 23.2%

====

# assay protocol: pH stability profile
# Type: physicochemical
# condition description: buffer pH 2, ~4 mg/ml; unit assumed
value type: Assay, initial (%)
Numbers only, in %.

Sure, the documented Assay, initial for CC(Cc1ccccc1)C(=O)[O-].[Na+] (stereo not drawn) [sodium α-methyl hydrocinnamate] is 95.8

====

# assay protocol: pH stability profile
# Format: physicochemical
# condition description: buffer pH 9; unit assumed
value type: Assay, initial (%)
Numbers only, in %.

For this compound ( CC(Cc1ccccc1)C(=O)[O-].[Na+] (stereo not drawn) [sodium α-methyl hydrocinnamate] ), measured Assay, initial is 98.8
